Measured half-life at 0.2 mg/ml, listed per entry for reference.
# protocol_description: Stability in aqueous media (PBS pH 7.4)
# Format: physicochemical
# Set-up: unit not given here
# conditions: phosphate buffer solution (PBS); PBS pH 7.4, 37° C., samples at T=0, 4, 24, 96 h; read-out: Stability grading (t1/2)
# From the text: LC/MS data was collected for compound identity.
Non-standard residues stand in square brackets, D forms with d. Residues, ends and D or L forms follow the SMILES beside them. *: point of attachment. d2Nal = N[C@H](Cc1ccc2ccccc2c1)C(=O)O; pGlu = O=C1CC[C@@H](C(=O)O)N1; tBu = CC(C)(C)*

CCNC(=O)[C@@H]1CCCN1C(=O)[C@H](CCCNC(=N)N)NC(=O)[C@H](CC(C)C)NC(=O)[C@@H](COC(C)(C)C)NC(=O)[C@H](Cc1c[nH]cn1)NC(=O)[C@H](CO)NC(=O)[C@H](Cc1c[nH]c2ccccc12)NC(=O)[C@H](Cc1c[nH]cn1)NC(=O)[C@@H]1CCC(=O)N1 [Compound 6] ([pGlu]HWSH[dS](tBu)LRP-NHEt); > 96

From here, focus on the item given below.
Looking for the measured half-life at 0.2 mg/ml of CC(C)C[C@H](NC(=O)[C@@H](Cc1ccc2ccccc2c1)NC(=O)[C@H](Cc1ccc(O)cc1)NC(=O)[C@H](CO)NC(=O)[C@H](Cc1c[nH]c2ccccc12)NC(=O)[C@H](Cc1c[nH]cn1)NC(=O)[C@@H]1CCC(=O)N1)C(=O)N[C@@H](Cc1ccc(O)cc1)C(=O)N1CCC[C@H]1C(=O)NCC(N)=O [Compound 25] ([pGlu]HWSY[d2Nal]LYPG-NH2) , can you help?
< 96

Every entry's value here was drawn from patent US11434258B2.
